Biological target: recombinant CutC/D (choline TMA lyase) (Proteus mirabilis)
Sequence (B4EYG1 1-1142): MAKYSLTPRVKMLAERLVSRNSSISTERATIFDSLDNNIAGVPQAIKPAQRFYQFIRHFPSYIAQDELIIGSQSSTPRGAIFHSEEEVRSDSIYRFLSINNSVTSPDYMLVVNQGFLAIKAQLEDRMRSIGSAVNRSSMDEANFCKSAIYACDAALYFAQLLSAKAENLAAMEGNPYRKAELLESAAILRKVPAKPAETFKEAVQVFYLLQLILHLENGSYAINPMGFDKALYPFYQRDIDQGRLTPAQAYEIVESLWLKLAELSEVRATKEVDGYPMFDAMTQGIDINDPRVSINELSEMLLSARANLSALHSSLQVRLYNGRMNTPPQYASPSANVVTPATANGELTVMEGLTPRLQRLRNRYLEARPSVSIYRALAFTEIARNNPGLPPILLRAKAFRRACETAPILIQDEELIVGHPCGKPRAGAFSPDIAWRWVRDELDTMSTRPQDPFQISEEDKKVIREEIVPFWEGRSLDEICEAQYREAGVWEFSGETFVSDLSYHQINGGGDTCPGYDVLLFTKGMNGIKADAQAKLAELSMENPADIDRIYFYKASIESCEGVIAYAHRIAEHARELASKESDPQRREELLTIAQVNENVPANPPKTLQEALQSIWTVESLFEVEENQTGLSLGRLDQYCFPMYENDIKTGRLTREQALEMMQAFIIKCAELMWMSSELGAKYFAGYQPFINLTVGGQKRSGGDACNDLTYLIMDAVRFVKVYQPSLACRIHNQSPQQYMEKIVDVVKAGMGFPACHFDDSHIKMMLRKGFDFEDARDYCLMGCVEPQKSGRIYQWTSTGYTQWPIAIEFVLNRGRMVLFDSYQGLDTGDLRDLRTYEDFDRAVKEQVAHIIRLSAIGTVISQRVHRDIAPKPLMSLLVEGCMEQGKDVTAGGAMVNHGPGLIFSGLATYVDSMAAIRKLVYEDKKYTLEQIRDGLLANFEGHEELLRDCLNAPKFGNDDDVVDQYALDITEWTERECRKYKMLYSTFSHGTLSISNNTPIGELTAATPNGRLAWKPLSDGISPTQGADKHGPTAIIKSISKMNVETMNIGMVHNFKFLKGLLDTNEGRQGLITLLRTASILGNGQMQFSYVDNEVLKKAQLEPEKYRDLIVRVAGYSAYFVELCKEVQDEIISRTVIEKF
Experiment: Choline TMA lyase enzymatic activity assay (d9-choline to d9-TMA) in clarified lysate
Details: clarified lysate 5 mg/mL of E. coli expressing cutC/cutD; 300 μM d9-choline; 2 hours at 22° C.; d9-TMA by mass spectrometry
pIC50: −log10 of the molar value. Structures can show the parent of a compound that is named as a salt.
Listed next: entries and their corresponding pIC50.

| compound | pIC50 |
| --- | --- |
| C[C@H](N)C(=O)OCC[N+](C)(C)CF | 7.51 |
| CC(C)[C@H](N)C(=O)OCC[N+](C)(C)CF | 7.28 |
| C[N+](C)(CF)CCOC(=O)[C@@H]1CCCN1 [Compound 5, hydrochloride] | 8.19 |
| C[N+](C)(CF)CCOC(=O)CN | 8.49 |
| C[N+](C)(CF)CCOC(=O)[C@@H](N)Cc1ccccc1 | 7.74 |
